// data source = paper PMC8396041

# subject of test: STAT3 (Homo sapiens)
# Construct: Recombinant human STAT3 protein (Abnova, cat no. H00006774-P01)
# Sequence (P40763 2-770): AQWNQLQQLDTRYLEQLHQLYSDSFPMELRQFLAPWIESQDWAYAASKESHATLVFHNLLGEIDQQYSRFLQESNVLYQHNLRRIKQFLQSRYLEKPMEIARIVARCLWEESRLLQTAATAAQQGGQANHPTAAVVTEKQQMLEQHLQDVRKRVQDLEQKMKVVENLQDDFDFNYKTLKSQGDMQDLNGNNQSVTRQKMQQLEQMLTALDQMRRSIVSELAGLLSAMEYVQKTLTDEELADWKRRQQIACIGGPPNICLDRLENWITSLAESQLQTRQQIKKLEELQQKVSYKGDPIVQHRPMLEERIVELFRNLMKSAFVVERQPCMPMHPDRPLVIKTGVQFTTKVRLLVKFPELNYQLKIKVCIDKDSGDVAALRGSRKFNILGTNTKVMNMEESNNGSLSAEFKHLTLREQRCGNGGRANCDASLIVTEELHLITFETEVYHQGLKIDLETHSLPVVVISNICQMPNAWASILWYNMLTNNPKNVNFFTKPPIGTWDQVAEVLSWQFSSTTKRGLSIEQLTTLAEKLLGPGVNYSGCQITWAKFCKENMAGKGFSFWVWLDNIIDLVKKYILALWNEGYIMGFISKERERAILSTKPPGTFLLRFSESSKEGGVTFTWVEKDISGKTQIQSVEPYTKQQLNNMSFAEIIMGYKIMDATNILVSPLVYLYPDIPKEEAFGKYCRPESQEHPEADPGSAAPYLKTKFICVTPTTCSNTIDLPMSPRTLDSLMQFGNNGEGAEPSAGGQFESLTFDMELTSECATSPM
# test protocol: intrinsic fluorescence quenching titration (ex […] nm, em […] nm)
assay endpoint: Kd (µM)
Write the value in µM as a bare number.

[ask] Retrieve Kd on STAT3 (Homo sapiens); query C=C(C(=O)c1ccc2c(c1)C=CC(C)(C)O2)c1ccc(OC)c(OC)c1 [compound 4]
[reply] 26.8
